Test system: Penicillium decumbens
EXPERIMENTAL_PROTOCOL: Inhibition of Penicillium decumbens alpha-L-rhamnosidase at 1000 uM
VALUE_TYPE: inhibition (%)

1 = CC[C@@H]1N[C@@H](CO)[C@@H](O)[C@H](O)[C@H]1O
2 = CC[C@H]1NC[C@@H](O)[C@@H](O)[C@H](O)[C@H]1O
Returns the identifier with the smallest measured inhibition among 1 and 2 . Field: selected label. Fill in the label of the entry you choose. 2
(2: 5.3%, 1: 37.7%)

A = CC[C@H]1N[C@@H](CO)[C@@H](O)[C@H](O)[C@H]1O
B = CCC[C@@H]1N[C@@H](CO)[C@@H](O)[C@H](O)[C@H]1O
C = CC[C@@H]1N[C@H](CC)[C@H](O)[C@@H](O)[C@@H]1O
List the 3 entries from lowest inhibition to highest inhibition value. The response must list the labels following the requested ordering. C, A, B

====

Tested on: Helix pomatia
EXPERIMENTAL_PROTOCOL: Inhibition of snail beta-mannosidase at 1000 uM
VALUE_TYPE: inhibition (%)

{"STRUCTURE_SMILES_STRING": "CC[C@@H]1NC[C@@H](O)[C@@H](O)[C@H](O)[C@H]1O", "UNIT_TAG": "%", "inhibition": 0}
{"STRUCTURE_SMILES_STRING": "CC[C@@H]1N[C@@H](CO)[C@@H](O)[C@H](O)[C@H]1O", "UNIT_TAG": "%", "inhibition": 0}
{"STRUCTURE_SMILES_STRING": "CC[C@H]1N[C@@H](CO)[C@@H](O)[C@H](O)[C@H]1O", "UNIT_TAG": "%", "inhibition": 0}

1 = CC[C@H]1NC[C@@H](O)[C@@H](O)[C@H](O)[C@H]1O
2 = CC[C@@H]1N[C@H](CC)[C@H](O)[C@@H](O)[C@@H]1O
3 = CCC[C@@H]1NC[C@@H](O)[C@@H](O)[C@H](O)[C@H]1O
4 = CCC[C@@H]1N[C@@H](CO)[C@@H](O)[C@H](O)[C@H]1O
List these items ordered by inhibition, big to small. Kindly provide the labels arranged according to the requested ordering. 3, 4, 2, 1

====

EXPERIMENTAL_TARGET: UniProt Q58D55
Sequence (whole entry): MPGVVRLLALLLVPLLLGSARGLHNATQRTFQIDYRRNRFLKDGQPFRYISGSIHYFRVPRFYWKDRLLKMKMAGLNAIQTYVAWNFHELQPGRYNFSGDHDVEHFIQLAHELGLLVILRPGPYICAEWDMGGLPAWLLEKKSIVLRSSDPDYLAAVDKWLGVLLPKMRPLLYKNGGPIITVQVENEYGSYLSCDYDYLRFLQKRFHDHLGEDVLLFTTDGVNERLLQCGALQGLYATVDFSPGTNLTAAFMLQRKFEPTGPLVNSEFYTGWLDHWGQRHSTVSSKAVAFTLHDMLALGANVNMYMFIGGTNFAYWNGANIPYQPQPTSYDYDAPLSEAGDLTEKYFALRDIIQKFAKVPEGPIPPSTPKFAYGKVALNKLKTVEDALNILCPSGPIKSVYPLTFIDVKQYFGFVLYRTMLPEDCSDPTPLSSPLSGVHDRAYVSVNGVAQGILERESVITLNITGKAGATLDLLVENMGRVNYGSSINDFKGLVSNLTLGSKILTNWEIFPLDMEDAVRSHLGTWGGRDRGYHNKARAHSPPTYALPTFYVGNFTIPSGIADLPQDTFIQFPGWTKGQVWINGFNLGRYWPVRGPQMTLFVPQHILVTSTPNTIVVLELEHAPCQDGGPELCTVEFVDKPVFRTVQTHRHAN
EXPERIMENTAL_PROTOCOL: Inhibition of bovine liver beta-galactosidase at 1000 uM
VALUE_TYPE: inhibition (%)

{"STRUCTURE_SMILES_STRING": "CC[C@H]1NC[C@@H](O)[C@@H](O)[C@H](O)[C@H]1O", "ENDPOINT_VALUE": 12.1}
{"STRUCTURE_SMILES_STRING": "CCC[C@@H]1N[C@@H](CO)[C@@H](O)[C@H](O)[C@H]1O", "ENDPOINT_VALUE": 26.8}

a = CC[C@H]1N[C@@H](CO)[C@@H](O)[C@H](O)[C@H]1O
b = CC[C@@H]1N[C@@H](CO)[C@@H](O)[C@H](O)[C@H]1O
c = CC[C@@H]1N[C@H](CC)[C@H](O)[C@@H](O)[C@@H]1O
Rank items: key inhibition, increasing. Write the labels in rank order as requested. b, c, a
